In this section, each of the compounds is paired with its reported Hb.
- Organism: Rattus norvegicus
- TEST_METHOD_NOTES: Open TG-GATES - Regimen: Single
- Assay type: toxicity, organism-based, Sprague-Dawley
- Parameters: regimen Single, gender Male, age 6 weeks
- CONDITION: in vivo, po, 100 mg/kg, 9 h, tissue Blood, route gavage, dose level Low

# COMPOUND, UNITS_SYMBOL, Hb
data = [
    ("Clc1ccccc1CN1CCc2sccc2C1 [TICLOPIDINE]", "g/dL", 13.3),
    ("CCc1cc(C(N)=S)ccn1 [ETHIONAMIDE]", "g/dL", 14.2),
    ("O=C(O)c1cn(C2CC2)c2cc(N3CCNCC3)c(F)cc2c1=O [CIPROFLOXACIN]", "g/dL", 13.5),
    ("C[C@H](CS)C(=O)N1CCC[C@H]1C(=O)O [CAPTOPRIL]", "g/dL", 12.8),
    ("O=C(O)c1cc(/N=N/c2ccc(S(=O)(=O)Nc3ccccn3)cc2)ccc1O [SULFASALAZINE]", "g/dL", 13.2),
]

* * *

- Organism: Rattus norvegicus
- TEST_METHOD_NOTES: Open TG-GATES - Regimen: Single
- Format: toxicity, organism-based, Sprague-Dawley
- Parameters: regimen Single, gender Male, age 6 weeks
- CONDITION: in vivo, po, 0 mg/kg, 3 h, tissue Blood, route gavage, dose level Control

# COMPOUND, MCH, pg
rows = [
    ("Clc1ccccc1CN1CCc2sccc2C1 [TICLOPIDINE]", 21.1),
    ("CC(=O)Oc1ccccc1C(=O)O [ASPIRIN]", 22),
    ("C[C@H](CS)C(=O)N1CCC[C@H]1C(=O)O [CAPTOPRIL]", 21.4),
    ("COc1ccc(Cc2nccc3cc(OC)c(OC)cc23)cc1OC [PAPAVERINE]", 21.3),
    ("CCc1cc(C(N)=S)ccn1 [ETHIONAMIDE]", 22.1),
    ("NC(=O)N1c2ccccc2C=Cc2ccccc21 [CARBAMAZEPINE]", 21.9),
    ("CN(C)CCC=C1c2ccccc2CCc2ccccc21 [AMITRIPTYLINE]", 20.9),
    ("O=C(O)c1cc(/N=N/c2ccc(S(=O)(=O)Nc3ccccn3)cc2)ccc1O [SULFASALAZINE]", 21.2),
    ("NC(=O)N/N=C/c1ccc([N+](=O)[O-])o1 [NITROFURAZONE]", 21.6),
    ("Cn1c(=O)c2[nH]cnc2n(C)c1=O.O [THEOPHYLLINE]", 20.7),
    ("O=C(O)c1cn(C2CC2)c2cc(N3CCNCC3)c(F)cc2c1=O [CIPROFLOXACIN]", 21.8),
    ("CSc1ccc2c(c1)N(CCC1CCCCN1C)c1ccccc1S2 (configuration not stated) [THIORIDAZINE]", 21.8),
]

* * *

In this section, each of the compounds is paired with its reported CRE.
- Species on record: Rattus norvegicus
- TEST_METHOD_NOTES: Open TG-GATES - Regimen: Single
- Assay type: toxicity, organism-based, Sprague-Dawley
- Design: regimen Single, gender Male, age 6 weeks
- CONDITION: in vivo, po, 100 mg/kg, 24 h, tissue Plasma, route gavage, dose level Low

# COMPOUND, CRE
records = [
    ("C[C@H](CS)C(=O)N1CCC[C@H]1C(=O)O", "0.6 mg/dL"),
    ("O=C(O)c1cn(C2CC2)c2cc(N3CCNCC3)c(F)cc2c1=O", "0.5 mg/dL"),
    ("CCc1cc(C(N)=S)ccn1 [ETHIONAMIDE]", "0.6 mg/dL"),
    ("Clc1ccccc1CN1CCc2sccc2C1", "0.4 mg/dL"),
    ("O=C(O)c1cc(/N=N/c2ccc(S(=O)(=O)Nc3ccccn3)cc2)ccc1O", "0.4 mg/dL"),
]
